Tested on: U251 CNS
protocol text: NCI-60 one-dose screen, 48 h (100 = growth as untreated, 0 = no growth, -100 = all killed)
stated conditions: 10 µM unless noted
About 83,000 compounds went through this panel and 20% of them were active in at least one assay; those are over-represented in the sample as a whole.
Listing of entries alongside the reported growth.
Value expressed in %; do not type the unit.

// growth lookup, molecule = `CCCCNC(=O)Oc1ccc(/C(=C(\C)c2ccc(Cl)cc2)c2ccc(OCCN3CCCCC3)cc2)cc1` , result: 59.3

// growth lookup, molecule = `Oc1ccc(CCl)c2cccnc12` , result: 59.7

// growth lookup, molecule = `CCCCCCNC(=O)Oc1ccc(/C(=C(\C)c2ccc(Cl)cc2)c2ccc(OCCN3CCCCC3)cc2)cc1` , result: 34.7

// growth lookup, molecule = `COc1cc(C(=O)/C=C/c2c(Cl)nc3sccn23)cc(OC)c1OC` , result: 77.4

// growth lookup, molecule = COc1cc(C2CC(c3cccc(Br)c3)=NN2C(C)=O)cc(OC)c1OC (stereo not given) , result: 12.2

// growth lookup, molecule = `NS(=O)(=O)c1ccc(-n2nc(C(=O)N/N=C\c3ccc(F)cc3)cc2-c2ccc(Br)cc2)cc1` , result: 89
